Tested on: RAW 264.7 cells
Assay: Raw cell nitrite assay
Format: cell-based
Conditions: Mus musculus, RAW264.7, cultured RAW 264.7 cells, LPS-induced
Experimental: RAW 264.7 cells are plated to confluency on a 96-well tissue culture plate grown overnight (17 h) in the presence of LPS to induce NOS. A row of 3-6 wells were left untreated and served as controls for subtraction of nonspecific background. […] To terminate the cellular assay, the plate of cells is placed on ice and the nitrite-containing buffer removed and analyzed for nitrite using a previously published fluorescent determination for nitrite. […]
Structures can show the parent of a compound that is named as a salt.
QUANTITY MEASURED: IC50 (µM)

molecule="C/C(=N\\O)NCCCC[C@H](N)C(=O)O [Example 1, Dihydrochloride]" measured_on="RAW 264.7 cells" quantity_measured=IC50 result_units=µM value_measured=28

====

target: mouse inducible NOS (miNOS) (Mus musculus, UniProt P29477); construct: prepared from an extract of LPS-treated mouse RAW 264.7 cells; endogenous in cells; assay: Citrulline assay for nitric oxide synthase, miNOS; conditions: partially purified enzyme from LPS-treated RAW 264.7 cells
Structures can show the parent of a compound that is named as a salt.
QUANTITY MEASURED: IC50 (µM)

compound="C/C(=N\\O)NCCCC[C@H](N)C(=O)O [Example 1, Dihydrochloride]" quantity_measured=IC50 value_measured=77

====

target: recombinant human inducible NOS (hiNOS) (Homo sapiens); experiment: Human in vitro enzyme data, hiNOS
Where a name gives a salt, the structure may show the parent alone.
QUANTITY MEASURED: IC50 (µM)

compound="C/C(=N\\O)NCCCC[C@H](N)C(=O)O [Example 1, Dihydrochloride]" measured_on="recombinant human inducible NOS (hiNOS) (Homo sapiens)" quantity_measured=IC50 result_units=µM value_measured=154
